test system: Escherichia coli ATCC25922 strain; test: Antibacterial activity, MIC by broth microdilution (CLSI); assay type: cell-based
Assign MIC to each entry below.
Numbers only, in µg/mL.

Worked examples, 6 compounds total:
CNC(=O)[C@@](C)(C(=O)NO)N(C)C(=O)c1ccc(C#Cc2ccc([C@H](C)O)cc2)cc1 :: 0.25
CNC(=O)[C@@](C)(C(=O)NO)N(C)C(=O)c1ccc(C#Cc2ccc([C@H](O)CCOC)cc2)cc1 :: 0.25
CNC(=O)[C@@](C)(C(=O)NO)N(C)C(=O)c1ccc(C#Cc2ccc(COCCOC(C)=O)cc2)cc1 :: 0.25
CNC(=O)[C@@](C)(C(=O)NO)N(C)C(=O)c1ccc(C#Cc2ccc([C@H](O)[C@H](C)O)cc2)cc1 :: 0.5
CNC(=O)[C@@](C)(C(=O)NO)N(C)C(=O)c1ccc(C#Cc2ccc(COCC(C)(C)O)cc2)cc1 :: 0.25
CNC(=O)[C@@](C)(C(=O)NO)N(C)C(=O)c1ccc(C#Cc2ccc([C@@H](O)COC)cc2)cc1 :: 0.5

For the next question, use this compound.
Measured MIC, CNC(=O)[C@@](C)(C(=O)NO)N(C)C(=O)c1ccc(C#Cc2ccc(C(C)O)cc2)cc1 (stereo partly shown) : 0.25
